- Test system: NCI-H322M lung
- method_description: NCI-60 one-dose screen, 48 h (100 = growth as untreated, 0 = no growth, -100 = all killed)
- test_settings: 10 µM unless noted
- Method: Growth inhibition of the NCI-H322M human Non-Small Cell Lung tumor cell line is measured as a screen for anti-cancer activity. Cells are grown in 96 well plates and exposed to the test compound for 48 hours. Compounds are tested at a single concentration, which is 10^-5 M for most compounds. The reported endpoint is percent growth (GI% or GIPRCNT), where numbers from 0 - 100% represent growth inhibition, and numbers from -100% - 0 represent cell death. […]
The panel holds about 83,000 compounds, 20% with a hit somewhere; the sample as a whole holds those more often.
experimental_readout: growth (%)
Give bare numbers, in %.

> print(dat)
                                   molecule  quantitative.readout
1  O=S(=O)(NCCNc1nccc(-c2c(-c3cccc(F)c3)nc3sccn23)n1)c1ccc(Cl)cc1                  65.5
2  CCCCC/C=C/C(C)=C/C1CC(C)C/C=C/CCC(O)C(OC(N)=O)CCC(C)CC(O)C(C)C(=O)O1 (configuration not stated)                   101
3  O=S(=O)(NCCCNc1nccc(-c2c(-c3cccc(O)c3)nc3occn23)n1)c1ccc(Cl)cc1                   103
4  Cc1ccc(-n2c3c(c(-c4ccccc4)c2-c2ccccc2)C2=NCCN2C=N3)cc1                  96.6
5  CCOc1cccc(-c2nc(N)nc(Nc3ccccc3SSc3ccccc3Nc3nc(N)nc(-c4cccc(OCC)c4)n3)n2)c1                  85.1

# batch: return growth for each of the 3 molecules below
1. Cc1nc2sccn2c1-c1cn2ccsc2n1
2. c1ccc(-c2cn3c(ccc4ccccc43)n2)cc1
3. C[C@@H](Nc1ncnc2ccc(-c3cnc(N)nc3)cc12)c1ccc(F)cc1

Result:
82.7
77.5
37.8

# batch: return growth for each of the 7 molecules below
1. CCOC(=O)c1cc(C(=O)c2ccc(OC)c(OC)c2)n2ccc(/C=C/c3cc[n+](CC(=O)c4ccc(OC)c(OC)c4)cc3)cc12
2. Cc1cccc(C)c1N=c1oc2ccc(Cl)cc2nc1-c1ccccc1O
3. C=CCN1C(=O)/C(=C/C(=O)OC)S/C1=N\NC(=O)c1cc2ccc1/C=C\c1ccc(cc1)/C=C\2
4. N#CC1C(C#N)C(C(=O)c2ccc(Br)cc2)N2c3ccccc3C=CC12 (configuration not stated)
5. Cc1ccc(/C=N/NC(=O)CSc2nc3ccccc3c(=O)n2Cc2ccc(S(N)(=O)=O)cc2)cc1
6. CC(=O)Nc1cccc(-c2ccc3c(c2)NC(=O)/C3=C\c2ccc[nH]2)c1
7. CCCC/C=N/NC(=S)NCc1ccccc1

Result:
1. 99
2. 88.6
3. 97.1
4. 93.4
5. 102
6. 40.9
7. 105

# batch: return growth for each of the 8 molecules below
1. COc1cccc(-c2nc3occn3c2-c2ccnc(NCCCNS(=O)(=O)c3ccc(C(F)(F)F)cc3)n2)c1
2. Cc1ccc(S(=O)(=O)Nn2c3c(cc(-c4nc5ccccc5s4)c2=O)CCCCCC3)cc1
3. CC(C)N1C(=O)/C(=C2\SC(=S)N(C(C)C)C2=O)SC1=S
4. CNC(=O)c1cccc(Cn2nc(C)c(NC(=O)c3ccc(COc4ccc(C(F)(F)F)cc4C)cc3)c2C)c1
5. Cn1ccnc1C(=O)/C=C/c1ccc(CC(=O)Nc2ccc(F)cc2)cc1
6. O=C(N/N=C/c1ccc(Oc2ccccc2)cc1)c1cnn2c1NC(c1ccccc1)C2 (configuration not stated)
7. COC(=O)c1ccc2c(c1)[n+](=O)c(C(C)=O)c(C(F)(F)F)n2[O-]
8. C=C1C(=O)O[C@H]2[C@H]1CC/C(COC(=O)NCc1c[nH]c3ccc(Cl)cc13)=C\CC[C@@]1(C)O[C@@H]21

Result:
1: 99.4; 2: 100; 3: 94; 4: 88; 5: 42.8; 6: 32.2; 7: 66.2; 8: 76.2

---

- Test system: MDA-MB-435 melanoma
- method_description: NCI-60 one-dose screen, 48 h
- test_settings: 10 µM unless noted
This is part of a sample that, as a whole, favours compounds with a hit. Of some 83,000 tested, about 20% had one in any assay. Calls of active or inactive are those of the source. Rule for the calls: active = growth percent below 10; inactive = the rest.
Pick one and only one: 1 for active, 0 for inactive

compound	class
C=C(C)[C@@H]1CC[C@]2(C(=O)N3CCN(C)CC3)CC[C@]3(C)[C@H](CC[C@@H]4[C@@]5(C)C/C(=C/c6ccncc6)C(=O)C(C)(C)[C@@H]5CC[C@]43C)[C@@H]12	0

Ask: # lookup: test call for COc1cccc(-c2cc(C(=O)Nc3ccc(/C=C/c4ccc(OC5CCN(C)CC5)cc4)cc3)ccc2OC)c1
Result: 1

Ask: # lookup: test call for CCCCCC(=O)Oc1ccc(/C(=C(/C)Cc2ccc(OC)cc2)c2ccc(OCCCN(C)C)cc2)cc1
Result: 0

Ask: # lookup: test call for CC(=O)N1N=C(c2ccc(-n3ccc(C(F)(F)F)n3)c(F)c2)CC1c1ccc[nH]1 (stereo not drawn)
Result: 0

Ask: # lookup: test call for CCN1CCN(CCNc2nccc(-c3c(-c4cccc(OC)c4)nc4occn34)n2)S1(=O)=O
Result: 0

Ask: # lookup: test call for Cc1ccc(C(=O)/C(=C/c2ccc([N+](=O)[O-])cc2)SCc2ccc(Cl)cc2)cc1
Result: 0

Ask: # lookup: test call for COC(=O)C1=C(C(=O)ON)C2C=CC1(C(Cc1ccccc1)Nc1ccccc1)O2 (stereo not drawn)
Result: 0

Ask: # lookup: test call for O=C(Cn1c(C(=O)c2ccccc2)nc2ccccc21)c1ccc(F)cc1
Result: 1

---

Field: growth. Provide a value for each of the compounds that follow.
- Test system: SN12C renal
- method_description: NCI-60 one-dose screen, 48 h (100 = growth as untreated, 0 = no growth, -100 = all killed)
- test_settings: 10 µM unless noted
This is part of a sample that, as a whole, favours compounds with a hit. Of some 83,000 tested, about 20% had one in any assay.
Answers are plain numbers, in %.

Look over these answered cases.
> print(dat)
                                   compound  reading.unit  quantitative.readout
1  CCCCOc1ccc(/C(C)=N/Nc2cc(C)nc3ccc(Br)cc23)cc1             %                  82.5
2  COc1ccc(C(=O)Cn2c(C(=O)c3ccccc3)nc3ccccc32)cc1             %                    43
3  C/C=C(\C)C(=O)NC1=CC[C@@]2(C)C(=CCC3C2CC[C@@]2(C)C3CC[C@@H]2C(C)N(C)C)C1=O (some centres undefined)             %                  60.6
4  CNC(=O)c1cccc(Cn2nc(C)c(NC(=O)c3ccc(COc4ccc(C(F)(F)F)cc4C)cc3)c2C)n1             %                  59.8
5  COc1ccccc1NS(=O)(=O)c1cccc(C(=O)Nc2ccc(Br)cc2)c1             %                  51.8
6  CCCCCN1C=C/C(=C\C(=O)N(C)c2ccc(OC(F)(F)F)cc2)c2ccccc21             %                    96
7  COc1c(Cl)c2c(c(OC)c1OC)-c1ccc(SC)c(=O)cc1[C@@H](NC(=O)OCC(F)(F)F)CC2             %                  24.2
8  c1ccc(-c2c(-c3ccccc3)[n+](Cc3ccc4ccccc4c3)c(-c3cccc4ccccc34)n2Cc2ccc3ccccc3c2)cc1             %                 -81.6

Alright, here's another compound for you.
Ask: Entry Cn1nc(CC#N)c2c(=N)n(N)cnc21 needs its growth filled in; supply it.
Result: 98.6

---

- Tested on: KM12 colon
- method_description: NCI-60 one-dose screen, 48 h (100 = growth as untreated, 0 = no growth, -100 = all killed)
- test_settings: 10 µM unless noted
Compounds without any hit were thinned out: in the full panel of roughly 83,000, 20% have a hit.
Field: growth. Provide a value for each of the compounds that follow.
One number for each entry, in %.

> print(dat)
                              sample.smiles  quantitative.readout
1  N#C/C(=C\c1ccc(C(F)(F)F)cc1)c1cc2ccccc2[nH]1                  97.7
2  Nc1c(C(=O)Nc2ccnc3ccccc23)sc2nc3c(cc12)CN(Cc1ccccc1)CC3                  79.7
3  COc1ccc(-c2nc([C@@H](C)Sc3nc(N)cc(N)n3)c(C)s2)cc1OCCN1CCOCC1                   104
4  CCCCCN1C=C/C(=C\C(=O)N(C)c2ccc(OC(F)(F)F)cc2)c2ccccc21                   102

Ask: Entry Cc1c(C(=O)NCCC(=O)NO)sc2ncnc(Nc3ccc(F)c(Cl)c3)c12 needs its growth filled in; supply it.
Result: 104
